system: JeKo-1; experiment: cells; type: functional, cell-based; details: Homo sapiens, JeKo-1, 72 h
metric: IC50 (nM)
Number only, in nM; omit the unit.

So for `CC[C@@]1(O)C(=O)OCc2c1cc1n(c2=O)Cc2c-1nc1ccccc1c2/C=N/OCCCCCC(=O)NCCSSCCNC(=O)/C(Cc1ccc(O)c(Br)c1)=N\O` , the logged IC50 turned out to be 60

###

tested on: U2932; assay: cells; format: functional, cell-based; conditions: Homo sapiens, U2932, 72 h
Consider the following molecules; for each one, report its IC50.
Enter your answer as a number in nM; do not include the unit.

Measured IC50 of `CC[C@@]1(O)C(=O)OCc2c1cc1n(c2=O)Cc2c-1nc1ccccc1c2/C=N/OCCCCCC(=O)NCCSSCCNC(=O)/C(Cc1ccc(O)c(Br)c1)=N\O` : 110

Entry `CCc1c2c(nc3ccc(OC(=O)N4CCC(N5CCCCC5)CC4)cc13)-c1cc3c(c(=O)n1C2)COC(=O)[C@]3(O)CC` — recorded IC50 = 4400

###

Provide the reported IC50 of each item.
test system: HT-29; experiment: Antiproliferative activity against human HT-29 cells after 72 hrs by SRB assay; format: functional, cell-based; conditions: HT-29, 72 h
Respond with the bare value in nM.

Fill in: HT-29 IC50 for `CC[C@@]1(O)C(=O)OCc2c1cc1n(c2=O)Cc2c-1nc1ccccc1c2/C=N/OCCCCCC(=O)NCCSSCCNC(=O)/C(Cc1ccc(O)c(Br)c1)=N\O` = 660

HT-29 data for `CC[C@@]1(O)C(=O)OCc2c1cc1n(c2=O)Cc2c-1nc1ccccc1c2/C=N/OCCCCCC(=O)NCCSSCCNC(=O)/C(Cc1ccc(O)cc1)=N\O` ; its IC50: 460

Item `CCc1c2c(nc3ccc(OC(=O)N4CCC(N5CCCCC5)CC4)cc13)-c1cc3c(c(=O)n1C2)COC(=O)[C@]3(O)CC` ; assay system HT-29; IC50 reported as 4800

###

What IC50 was measured for each of the following?
Just the number please, in nM, no unit attached.

Entry `CC[C@@]1(O)C(=O)OCc2c1cc1n(c2=O)Cc2c-1nc1ccc(O)cc1c2/C=N/OCCCCCC(=O)NCCSSCCNC(=O)/C(Cc1ccc(O)c(Br)c1)=N\O` ; assay system Histone deacetylase 2 (Homo sapiens, UniProt Q92769); IC50 recorded at 410

Result for `CC[C@@]1(O)C(=O)OCc2c1cc1n(c2=O)Cc2c-1nc1ccccc1c2/C=N/OCCCCCC(=O)NCCSSCCNC(=O)/C(Cc1ccc(O)c(Br)c1)=N\O` , tested on Histone deacetylase 2 (Homo sapiens, UniProt Q92769), IC50: 327

###

metric: IC50 (nM)
Please state the figure in nM; there is no need to write the unit.

Simply: `CC[C@@]1(O)C(=O)OCc2c1cc1n(c2=O)Cc2c-1nc1ccccc1c2/C=N/OCCCCCC(=O)NCCSSCCNC(=O)/C(Cc1ccc(O)c(Br)c1)=N\O` , Protein deacetylase HDAC6 (Homo sapiens, UniProt Q9UBN7), IC50 = 709

For `CC[C@@]1(O)C(=O)OCc2c1cc1n(c2=O)Cc2c-1nc1ccc(O)cc1c2/C=N/OCCCCCC(=O)NCCSSCCNC(=O)/C(Cc1ccc(O)c(Br)c1)=N\O` on Protein deacetylase HDAC6 (Homo sapiens, UniProt Q9UBN7), measured IC50 was 1490

###

tested on: HepG2; assay: Antiproliferative activity against human HepG2 cells after 72 hrs by SRB assay; assay type: functional, cell-based; settings: HepG2, 72 h
Would you kindly list IC50 for each of these molecules?
Please state the figure in nM; there is no need to write the unit.

Noted IC50 for `CC[C@@]1(O)C(=O)OCc2c1cc1n(c2=O)Cc2c-1nc1ccccc1c2/C=N/OCCCCCC(=O)NCCSSCCNC(=O)/C(Cc1ccc(O)cc1)=N\O` , tested on HepG2: 610

Bench note, HepG2: entry `CC[C@@]1(O)C(=O)OCc2c1cc1n(c2=O)Cc2c-1nc1ccccc1c2/C=N/OCCCCCC(=O)NCCSSCCNC(=O)/C(Cc1ccc(O)c(Br)c1)=N\O` , its IC50 = 760

The reported HepG2 IC50 of `CCc1c2c(nc3ccc(OC(=O)N4CCC(N5CCCCC5)CC4)cc13)-c1cc3c(c(=O)n1C2)COC(=O)[C@]3(O)CC` is 4000

###

metric: IC50 (nM)
Dear colleague, please return just the value in nM, with no unit written.

Lab note: compound `CC[C@@]1(O)C(=O)OCc2c1cc1n(c2=O)Cc2c-1nc1ccccc1c2/C=N/OCCCCCC(=O)NCCSSCCNC(=O)/C(Cc1ccc(O)c(Br)c1)=N\O` tested on Histone deacetylase 1 (Homo sapiens, UniProt Q13547); recorded IC50 was 150

Result for `CC[C@@]1(O)C(=O)OCc2c1cc1n(c2=O)Cc2c-1nc1ccc(O)cc1c2/C=N/OCCCCCC(=O)NCCSSCCNC(=O)/C(Cc1ccc(O)c(Br)c1)=N\O` , tested on Histone deacetylase 1 (Homo sapiens, UniProt Q13547), IC50: 253

###

molecular target: Polyamine deacetylase HDAC10 (Homo sapiens, UniProt Q969S8); assay: Inhibition of HDAC10 (unknown origin) using RHKK(Ac)AMC as substrate after 1 to 2 hrs by fluorescence assay
Sequence (Q969S8 whole entry): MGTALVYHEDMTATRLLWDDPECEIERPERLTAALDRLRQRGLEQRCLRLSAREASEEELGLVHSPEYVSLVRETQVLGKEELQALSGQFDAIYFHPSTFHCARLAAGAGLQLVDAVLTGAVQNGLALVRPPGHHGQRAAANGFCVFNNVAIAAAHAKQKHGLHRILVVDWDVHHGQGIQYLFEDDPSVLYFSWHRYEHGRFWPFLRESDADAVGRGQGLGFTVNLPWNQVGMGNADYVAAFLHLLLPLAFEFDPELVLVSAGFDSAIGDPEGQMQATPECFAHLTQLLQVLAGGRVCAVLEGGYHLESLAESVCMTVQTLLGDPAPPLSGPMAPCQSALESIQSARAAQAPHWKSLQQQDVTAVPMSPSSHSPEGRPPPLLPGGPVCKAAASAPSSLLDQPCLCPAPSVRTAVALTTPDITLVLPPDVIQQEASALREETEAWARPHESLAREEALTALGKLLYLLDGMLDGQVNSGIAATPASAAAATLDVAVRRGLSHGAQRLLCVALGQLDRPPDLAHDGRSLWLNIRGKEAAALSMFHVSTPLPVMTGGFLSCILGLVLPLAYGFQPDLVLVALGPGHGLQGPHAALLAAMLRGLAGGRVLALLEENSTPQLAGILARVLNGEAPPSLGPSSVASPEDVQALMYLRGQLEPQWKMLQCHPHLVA
metric: pIC50
Give only the number. pIC50 is defined as minus log10 of concentration in molar units.

Form field pIC50 for item `CC[C@@]1(O)C(=O)OCc2c1cc1n(c2=O)Cc2c-1nc1ccc(O)cc1c2/C=N/OCCCCCC(=O)NCCSSCCNC(=O)/C(Cc1ccc(O)c(Br)c1)=N\O` on Polyamine deacetylase HDAC10 (Homo sapiens, UniProt Q969S8): 8.04

Short answer on Polyamine deacetylase HDAC10 (Homo sapiens, UniProt Q969S8) for `CC[C@@]1(O)C(=O)OCc2c1cc1n(c2=O)Cc2c-1nc1ccccc1c2/C=N/OCCCCCC(=O)NCCSSCCNC(=O)/C(Cc1ccc(O)c(Br)c1)=N\O` , pIC50: 8.12
